Test: Toxicity assessed in human T-cells using a colorimetric cell proliferation assay.
Format: cell-based
Threshold 60%: NCC strictly smaller gives yes, otherwise no.

smiles_str=CC(C)CCn1cc(NC(=O)c2ccnc(C(=O)Nc3cc(C(=O)NCCC(=N)N)n(CCC(C)C)c3)c2)cc1C(=O)NCCC(=N)N class=yes
smiles_str=Cn1cc(NC(=O)c2cc(NC(=O)c3cc(NC=O)cn3C)cn2C)cc1C(=O)NCCC(=N)N class=no

Item CC/N=C(\N)CCNC(=O)c1cc(NC(=O)c2ccc(C(=O)Nc3cc(C(=O)NCC/C(N)=N/CC)n(CCC(C)C)c3)cc2)cn1CCC(C)C : NCC beneath 60%, strictly?
no

Item N=C(N)CCNC(=O)c1cc(NC(=O)c2cnc(C(=O)Nc3cc(C(=O)NCCC(=N)N)n(CC4CC4)c3)cn2)cn1CC1CC1 : NCC beneath 60%, strictly?
no

Item N=C(N)CCNC(=O)c1cc(NC(=O)c2ccc(C(=O)Nc3cc(C(=O)NCCC(=N)N)n(CC4CC4)c3)c([N+](=O)[O-])c2)cn1CC1CC1 : NCC beneath 60%, strictly?
no

Item Cn1cc(NC(=O)c2ccc(C(=O)Nc3cc(C(=O)NCCC(=N)N)n(C)c3)cc2)cc1C(=O)NCCC(=N)N : NCC beneath 60%, strictly?
yes
